# test: Binary supramolecular self-assembly systems of polymer and target: guest concentration over incubation time (Comparative Example 2)
# Type: physicochemical
# condition set: binary system with 0.5% polymer 107; incubation 3 h
quantity name: Concentration of the target in the solution measured after different incubation time (µg/mL)
Numbers only, in µg/mL.

{"compound": "C=CC(=O)N1CCC[C@@H](n2nc(-c3ccc(Oc4ccccc4)cc3)c3c(N)ncnc32)C1 [Ibrutinib]", "endpoint result": 53.1}
{"compound": "C=CC[C@@H]1/C=C(\\C)C[C@H](C)C[C@H](OC)[C@H]2O[C@@](O)(C(=O)C(=O)N3CCCC[C@H]3C(=O)O[C@H](/C(C)=C/[C@@H]3CC[C@@H](O)[C@H](OC)C3)[C@H](C)[C@@H](O)CC1=O)[C@H](C)C[C@@H]2OC [Tacrolimus]", "endpoint result": 62.8}
{"compound": "Cc1ccc(-c2cc(C(F)(F)F)nn2-c2ccc(S(N)(=O)=O)cc2)cc1 [Celecoxib]", "endpoint result": 35.4}
{"compound": "CC1(C)CCC(CN2CCN(c3ccc(C(=O)NS(=O)(=O)c4ccc(NCC5CCOCC5)c([N+](=O)[O-])c4)c(Oc4cnc5[nH]ccc5c4)c3)CC2)=C(c2ccc(Cl)cc2)C1 [Venetoclax, venetoclax]", "endpoint result": 153.1}
{"compound": "COC(=O)[C@H](c1ccccc1Cl)N1CCc2sccc2C1 [Clopidogrel, clopidogrel]", "endpoint result": 37.8}

Please state, for each entry, its recorded Concentration of the target in the solution measured after different incubation time.
1. CC(C)OC(=O)CCC/C=C\C[C@@H]1[C@@H](/C=C/C(F)(F)COc2ccccc2)[C@H](O)C[C@@H]1O [Tafluprost, tafluprost]
2. Cc1cn(-c2cc(NC(=O)c3ccc(C)c(Nc4nccc(-c5cccnc5)n4)c3)cc(C(F)(F)F)c2)cn1 [Nilotinib]
3. C=C(C)[C@@H]1CCC(C)=C[C@H]1c1c(O)cc(CCCCC)cc1O [Cannabidiol]

36.8
62.3
97.2

Please state, for each entry, its recorded Concentration of the target in the solution measured after different incubation time.
1. CNC(=O)c1cc(Oc2ccc(NC(=O)Nc3ccc(Cl)c(C(F)(F)F)c3)cc2)ccn1 [Sorafenib]
2. CCCSc1nc(N[C@@H]2C[C@H]2c2ccc(F)c(F)c2)c2nnn([C@@H]3C[C@H](OCCO)[C@@H](O)[C@H]3O)c2n1 [Ticagrelor]

[432.2, 52.1]

---

# test: Binary supramolecular self-assembly systems of polymer and target: guest concentration over incubation time (Comparative Example 2)
# Type: physicochemical
# condition set: binary system with 0.5% polymer 104; incubation 3 h
quantity name: Concentration of the target in the solution measured after different incubation time (ng/mL)
Give bare numbers, in ng/mL.

{"molecule": "COc1cc2nccc(Oc3ccc(NC(=O)NC4CC4)c(Cl)c3)c2cc1C(N)=O", "u": "ng/mL", "endpoint result": 42700}
{"molecule": "CC(=O)c1c(C)c2cnc(Nc3ccc(N4CCNCC4)cn3)nc2n(C2CCCC2)c1=O", "u": "ng/mL", "endpoint result": 156400}
{"molecule": "C=CC(=O)N1CCC[C@@H](n2nc(-c3ccc(Oc4ccccc4)cc3)c3c(N)ncnc32)C1", "u": "ng/mL", "endpoint result": 13700}

Please state, for each entry, its recorded Concentration of the target in the solution measured after different incubation time.
1. CCCSc1nc(N[C@@H]2C[C@H]2c2ccc(F)c(F)c2)c2nnn([C@@H]3C[C@H](OCCO)[C@@H](O)[C@H]3O)c2n1
2. Cc1cn(-c2cc(NC(=O)c3ccc(C)c(Nc4nccc(-c5cccnc5)n4)c3)cc(C(F)(F)F)c2)cn1
3. CCC(C)n1ncn(-c2ccc(N3CCN(c4ccc(OCC5COC(Cn6cncn6)(c6ccc(Cl)cc6Cl)O5)cc4)CC3)cc2)c1=O (stereo not drawn)
4. CNC(=O)c1cc(Oc2ccc(NC(=O)Nc3ccc(Cl)c(C(F)(F)F)c3)cc2)ccn1

1: 9400; 2: 84900; 3: 7100; 4: 4300

Please state, for each entry, its recorded Concentration of the target in the solution measured after different incubation time.
1. O=C1[C@H](CC[C@H](O)c2ccc(F)cc2)[C@@H](c2ccc(O)cc2)N1c1ccc(F)cc1
2. CC(C)OC(=O)CCC/C=C\C[C@@H]1[C@@H](/C=C/C(F)(F)COc2ccccc2)[C@H](O)C[C@@H]1O

3600
24200

---

# test: Binary supramolecular self-assembly systems of polymer and target: guest concentration over incubation time (Comparative Example 2)
# Assay type: physicochemical
# condition set: binary system with 0.5% polymer 110; incubation 0.5 h
quantity name: Concentration of the target in the solution measured after different incubation time (ng/mL)
Numbers only, in ng/mL.

{"compound": "CC#CC(=O)N1CCC[C@H]1c1nc(-c2ccc(C(=O)Nc3ccccn3)cc2)c2c(N)nccn12", "endpoint result": 427600}
{"compound": "O=C(O)[C@H]1O[C@@H](Oc2cc3oc(-c4ccc(O)cc4)cc(=O)c3c(O)c2O)[C@H](O)[C@@H](O)[C@@H]1O", "endpoint result": 95900}
{"compound": "CCCCC1OC(=O)c2ccccc21 (centres unmarked) [Butylphthalide]", "endpoint result": 240500}

Please state, for each entry, its recorded Concentration of the target in the solution measured after different incubation time.
1. CCCNS(=O)(=O)Nc1ncnc(OCCOc2ncc(Br)cn2)c1-c1ccc(Br)cc1
2. COC(=O)[C@H](c1ccccc1Cl)N1CCc2sccc2C1
3. Cc1ccc(-c2cc(C(F)(F)F)nn2-c2ccc(S(N)(=O)=O)cc2)cc1
4. COc1cc(/C=C/C(=O)CC(=O)/C=C/c2ccc(O)c(OC)c2)ccc1O
5. COC1=CC(=O)C[C@@H](C)[C@]12Oc1c(Cl)c(OC)cc(OC)c1C2=O

28700
64700
6400
6000
27100

---

Answer each item with its documented Concentration of the target in the solution measured after different incubation time.
# test: Binary supramolecular self-assembly systems of polymer and target: guest concentration over incubation time (Comparative Example 2)
# Type: physicochemical
# condition set: binary system with 0.5% polymer 103; incubation 0.5 h
One number for each entry, in µg/mL.

As a guide, the following entries are already answered.
{"molecule": "Cc1cn(-c2cc(NC(=O)c3ccc(C)c(Nc4nccc(-c5cccnc5)n4)c3)cc(C(F)(F)F)c2)cn1 [Nilotinib]", "u": "µg/mL", "endpoint result": 125.2}
{"molecule": "CC(C)OC(=O)CCC/C=C\\C[C@@H]1[C@@H](/C=C/C(F)(F)COc2ccccc2)[C@H](O)C[C@@H]1O [Tafluprost, tafluprost]", "u": "µg/mL", "endpoint result": 14.6}
{"molecule": "CCC(C)n1ncn(-c2ccc(N3CCN(c4ccc(OCC5COC(Cn6cncn6)(c6ccc(Cl)cc6Cl)O5)cc4)CC3)cc2)c1=O (stereo not shown) [Itraconazole, itraconazole]", "u": "µg/mL", "endpoint result": 14.1}

In the following, a different molecule is considered.
# lookup: Concentration of the target in the solution measured after different incubation time of O=C1C[C@@H](c2ccc(O)cc2)Oc2cc(O)cc(O)c21 [Naringenin]
230.7

---

# test: Binary supramolecular self-assembly systems of polymer and target: guest concentration over incubation time (Comparative Example 2)
# Type: physicochemical
# condition set: binary system with 0.5% polymer 103; incubation 3 h
# Experimental: Experiments were conducted according to the steps in Comparative Example 1, and quantitative analysis was carried out using the analytical method for each target to investigate the regulation ability […] stacking.
quantity name: Concentration of the target in the solution measured after different incubation time (ng/mL)
Numbers only, in ng/mL.

As a guide, the following entries are already answered.
{"compound smiles": "O=C1[C@@H]2[C@H]3CC[C@H](C3)[C@@H]2C(=O)N1C[C@@H]1CCCC[C@H]1CN1CCN(c2nsc3ccccc23)CC1", "endpoint result": 5200}
{"compound smiles": "CC(C)OC(=O)CCC/C=C\\C[C@@H]1[C@@H](/C=C/C(F)(F)COc2ccccc2)[C@H](O)C[C@@H]1O", "endpoint result": 23100}
{"compound smiles": "O=C1[C@H](CC[C@H](O)c2ccc(F)cc2)[C@@H](c2ccc(O)cc2)N1c1ccc(F)cc1", "endpoint result": 6900}

In the following, a different molecule is considered.
# lookup: Concentration of the target in the solution measured after different incubation time of COc1cc(/C=C/C(=O)CC(=O)/C=C/c2ccc(O)c(OC)c2)ccc1O
52900

---

# test: Binary supramolecular self-assembly systems of polymer and target: guest concentration over incubation time (Comparative Example 2)
# Type: physicochemical
# condition set: binary system with 0.5% polymer 107; incubation 6 h
# Protocol: Experiments were conducted according to the steps in Comparative Example 1, and quantitative analysis was carried out using the analytical method for each target to investigate the regulation ability […] stacking.
Response field class: string, computed from recorded Concentration of the target in the solution measured after different incubation time by ranges range 1 = under 30000 ng/mL, range 2 = from 30000 ng/mL up to 100000 ng/mL, range 3 = 100000 ng/mL and over

{"compound": "COC1=CC(=O)C[C@@H](C)[C@]12Oc1c(Cl)c(OC)cc(OC)c1C2=O", "assigned label": "range 2"}

Bin this entry: CNC(=O)c1cc(Oc2ccc(NC(=O)Nc3ccc(Cl)c(C(F)(F)F)c3)cc2)ccn1
range 3

Bin this entry: CCC(C)n1ncn(-c2ccc(N3CCN(c4ccc(OCC5COC(Cn6cncn6)(c6ccc(Cl)cc6Cl)O5)cc4)CC3)cc2)c1=O (stereo not shown)
range 1

Bin this entry: COc1cc2nccc(Oc3ccc(NC(=O)NC4CC4)c(Cl)c3)c2cc1C(N)=O
range 1

Bin this entry: CCOC(=O)C1=C(C)NC(C)=C(C(=O)OC)C1c1cccc(Cl)c1Cl (stereo not shown)
range 1

Bin this entry: CCOc1nc2cccc(C(=O)OC(C)OC(=O)OC3CCCCC3)c2n1Cc1ccc(-c2ccccc2-c2nnn[nH]2)cc1 (stereo not shown)
range 1
